FYI, the data here is from patent US9371320B2.

biological target: JAK1 (Homo sapiens); construct: purchased Invitrogen; assay: JAK1 enzyme inhibition test (LANCE method); format: biochemical; details: test compound 1 μM; read-out: Inhibitory rate (%) JAK1 1 μM
Sequence (P23458 whole entry): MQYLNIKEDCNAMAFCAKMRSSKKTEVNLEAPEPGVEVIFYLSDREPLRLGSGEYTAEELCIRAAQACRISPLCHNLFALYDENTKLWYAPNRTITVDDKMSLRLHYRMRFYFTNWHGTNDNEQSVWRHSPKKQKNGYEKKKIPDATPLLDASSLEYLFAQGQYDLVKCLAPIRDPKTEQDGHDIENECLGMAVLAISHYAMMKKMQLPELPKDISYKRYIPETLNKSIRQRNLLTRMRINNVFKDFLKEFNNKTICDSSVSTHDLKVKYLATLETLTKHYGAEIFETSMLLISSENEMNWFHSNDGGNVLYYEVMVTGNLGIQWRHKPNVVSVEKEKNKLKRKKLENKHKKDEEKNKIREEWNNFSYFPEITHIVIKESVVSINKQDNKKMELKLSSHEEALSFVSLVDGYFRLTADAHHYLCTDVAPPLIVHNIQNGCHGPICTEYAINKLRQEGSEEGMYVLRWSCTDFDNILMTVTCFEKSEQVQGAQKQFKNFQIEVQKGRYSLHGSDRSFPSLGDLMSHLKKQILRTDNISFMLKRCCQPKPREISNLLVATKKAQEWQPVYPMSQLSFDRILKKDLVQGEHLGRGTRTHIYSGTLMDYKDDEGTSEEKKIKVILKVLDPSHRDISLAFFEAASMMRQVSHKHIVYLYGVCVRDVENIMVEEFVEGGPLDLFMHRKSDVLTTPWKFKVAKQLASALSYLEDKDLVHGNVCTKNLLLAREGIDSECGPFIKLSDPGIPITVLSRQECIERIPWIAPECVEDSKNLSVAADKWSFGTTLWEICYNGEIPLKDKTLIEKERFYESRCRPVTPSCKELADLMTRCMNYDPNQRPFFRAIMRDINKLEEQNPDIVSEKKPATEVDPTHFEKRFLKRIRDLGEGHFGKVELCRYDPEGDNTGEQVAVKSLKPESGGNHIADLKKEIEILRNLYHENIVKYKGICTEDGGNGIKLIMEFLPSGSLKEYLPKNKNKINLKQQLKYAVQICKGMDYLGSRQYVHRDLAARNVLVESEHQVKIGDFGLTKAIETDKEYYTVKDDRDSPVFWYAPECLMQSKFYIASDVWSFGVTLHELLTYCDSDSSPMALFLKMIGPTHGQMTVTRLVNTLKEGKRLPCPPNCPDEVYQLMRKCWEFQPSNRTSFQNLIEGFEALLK
Observed Property: inhibition at 1 µM (%)

Examples with answers:
INSERT INTO assay_data (molecule, observed_property, value_units, measurement) VALUES
  ('NC(=O)c1cc(-c2nn(C3CCOCC3)c3cc[nH]c(=O)c23)cs1 [Example 27]', 'inhibition at 1 µM', '%', 98),
  ('O=c1[nH]ccc2c1c(-c1cccc(CN3CCCC3)c1)nn2-c1c(F)cccc1F [Example 288]', 'inhibition at 1 µM', '%', 55);

[1] NS(=O)(=O)c1ccc(-c2nn(C3CCCC3)c3cc[nH]c(=O)c23)cc1 [Example 92]
[2] CCNC(=O)n1cc(-c2nn(-c3c(F)cccc3F)c3c(Cl)c[nH]c(=O)c23)cn1 [Example 222]
### Prompt // pick min by inhibition at 1 µM: 1 , 2 Respond using the label that marks the chosen record.
### Response 2
(2: 69%, 1: 100%)

[P] NC(=O)c1ccc(-c2nn(-c3c(F)cccc3F)c3cc[nH]c(=O)c23)cc1 [Example 230]
[Q] O=C(NCCO)c1ccc(-c2nn(-c3c(F)cccc3F)c3c(Cl)c[nH]c(=O)c23)cc1 [Example 232]
[R] COC(=O)c1cc(-n2nc(-c3ccccc3C)c3c(C#N)c[nH]c(=O)c32)cs1 [Example 68]
[S] O=c1[nH]ccc2c1c(-c1cccc(CN3CCC(F)(F)C3)c1)nn2-c1c(F)cccc1F [Example 261]
### Prompt Exam item: list the entries in increasing order of inhibition at 1 µM. Sort and list the labels as requested.
### Response R, S, Q, P
(R: 4%, S: 41%, Q: 60%, P: 92%)

[P] NS(=O)(=O)c1ccc(-c2nn(C3CCOCC3)c3cc[nH]c(=O)c23)cc1 [Example 15]
[Q] CCOC(=O)c1ccc(-c2nn(-c3c(F)cccc3F)c3cc[nH]c(=O)c23)cn1 [Example 259]
[R] CNC(=O)c1ccc(-c2nn(-c3c(F)cccc3F)c3cc[nH]c(=O)c23)c(F)c1 [Example 294]
### Prompt Descending sort on inhibition at 1 µM required. To answer, arrange all of the labels according to the requested order.
### Response P, Q, R
(P: 99%, Q: 59%, R: 35%)

---

molecular target: Tyk2 (Homo sapiens); construct: purchased Invitrogen; experiment: Tyk2 enzyme inhibition test (LANCE method); type: biochemical; conditions: test compound 1 μM; read-out: Inhibitory rate (%) Tyk2 1 μM
Sequence (P29597 whole entry): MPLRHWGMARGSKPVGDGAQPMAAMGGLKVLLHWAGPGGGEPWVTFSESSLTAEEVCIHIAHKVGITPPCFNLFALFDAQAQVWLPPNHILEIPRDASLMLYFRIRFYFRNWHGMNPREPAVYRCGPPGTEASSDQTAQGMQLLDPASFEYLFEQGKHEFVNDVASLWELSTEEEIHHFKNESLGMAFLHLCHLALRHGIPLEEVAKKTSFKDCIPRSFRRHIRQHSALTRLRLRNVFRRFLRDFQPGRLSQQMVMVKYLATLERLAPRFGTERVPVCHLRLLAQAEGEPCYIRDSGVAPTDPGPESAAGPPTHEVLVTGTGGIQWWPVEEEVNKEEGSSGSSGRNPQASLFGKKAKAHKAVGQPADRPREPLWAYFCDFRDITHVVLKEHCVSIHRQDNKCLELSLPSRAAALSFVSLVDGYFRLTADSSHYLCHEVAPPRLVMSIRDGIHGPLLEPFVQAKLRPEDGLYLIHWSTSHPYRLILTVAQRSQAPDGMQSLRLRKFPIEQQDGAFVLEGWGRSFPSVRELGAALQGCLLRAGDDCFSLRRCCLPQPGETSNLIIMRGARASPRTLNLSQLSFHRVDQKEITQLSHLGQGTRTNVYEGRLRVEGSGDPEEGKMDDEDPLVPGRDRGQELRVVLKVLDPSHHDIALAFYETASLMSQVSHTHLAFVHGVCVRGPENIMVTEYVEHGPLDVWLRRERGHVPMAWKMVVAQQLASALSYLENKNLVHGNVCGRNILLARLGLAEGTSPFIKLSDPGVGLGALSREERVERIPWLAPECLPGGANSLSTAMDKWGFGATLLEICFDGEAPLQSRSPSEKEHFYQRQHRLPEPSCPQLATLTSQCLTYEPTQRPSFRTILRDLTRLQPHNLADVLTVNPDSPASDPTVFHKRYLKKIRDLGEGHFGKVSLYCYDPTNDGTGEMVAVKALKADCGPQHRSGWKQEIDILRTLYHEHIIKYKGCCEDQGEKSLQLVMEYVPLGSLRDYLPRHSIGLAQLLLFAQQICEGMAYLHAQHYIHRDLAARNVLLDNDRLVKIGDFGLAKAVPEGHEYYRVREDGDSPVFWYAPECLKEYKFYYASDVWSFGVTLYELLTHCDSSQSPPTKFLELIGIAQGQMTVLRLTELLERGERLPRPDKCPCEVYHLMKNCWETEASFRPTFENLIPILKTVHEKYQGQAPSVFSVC
Observed Property: inhibition at 1 µM (%)

The cases that follow already have their inhibition at 1 µM on record.
INSERT INTO results (compound, target_or_system, measurement) VALUES
  ('N#Cc1c[nH]c(=O)c2c(-c3cccc(CC(N)=O)c3)cn(C3CCCC3)c12 [Example 110]', 'Tyk2 (Homo sapiens)', 91),
  ('NC(=O)c1ccc(-c2nn(-c3c(F)cccc3F)c3cc[nH]c(=O)c23)cc1 [Example 230]', 'Tyk2 (Homo sapiens)', 99),
  ('NC(=O)c1cc(-c2nn(-c3c(F)cccc3F)c3cc[nH]c(=O)c23)cs1 [Example 38]', 'Tyk2 (Homo sapiens)', 99),
  ('NS(=O)(=O)c1ccc(-c2nn(C3CCC(F)(F)CC3)c3cc[nH]c(=O)c23)cc1 [Example 290]', 'Tyk2 (Homo sapiens)', 95),
  ('N#CCc1cc(-c2nn(-c3c(F)cccc3F)c3c(Cl)c[nH]c(=O)c23)cs1 [Example 152]', 'Tyk2 (Homo sapiens)', 99);

[a] CCC(COC)n1cc(-c2ccc(CC#N)cc2)c2c(=O)[nH]ccc21 (stereo not drawn) [Example 20]
[b] CC(C)(C#N)c1ccc(-c2nn(-c3c(F)cccc3F)c3c(Cl)c[nH]c(=O)c23)cc1 [Example 187]
### Prompt a or b : whose inhibition at 1 µM is greater? Indicate which entry you chose by stating its label.
### Response b
(b: 98%, a: 35%)
